Tested on: C. parvum
Assay: Egress, motility, reinvasion assay (PV ratio)
Settings: compound at EC90; single replicate 3
// label = class 1 if Egress and Reinvasion Assay: Mean PV ratios (19.5h:6h), Replicate 3a is not less than 0.6, otherwise class 0

[
  {
    "Compound": "CCOc1ccc(Cl)c2c1B(O)OC2CN (centres unmarked)",
    "Label value": "class 1"
  }
]

Identify whether the reported Egress and Reinvasion Assay: Mean PV ratios (19.5h:6h), Replicate 3a of the following compound is 0.6 or greater: Cc1cccc(-n2ncc3c(O)nc(-n4nc(C)cc4NC(=O)c4cc5ccccc5o4)nc32)c1 class 0

Identify whether the reported Egress and Reinvasion Assay: Mean PV ratios (19.5h:6h), Replicate 3a of the following compound is 0.6 or greater: CC(C)/N=c1\cc2n(-c3ccc(Cl)cc3)c3ccccc3nc-2cc1Nc1ccc(Cl)cc1 class 0

Identify whether the reported Egress and Reinvasion Assay: Mean PV ratios (19.5h:6h), Replicate 3a of the following compound is 0.6 or greater: O=C(CC1NCCCC1O)Cn1cnc2cc(Br)c(Cl)cc2c1=O (centres unmarked) class 0

Identify whether the reported Egress and Reinvasion Assay: Mean PV ratios (19.5h:6h), Replicate 3a of the following compound is 0.6 or greater: O=C(Nc1ccc(Cl)cc1)N1CCN(c2ccc3nncn3n2)CC1 class 1

Identify whether the reported Egress and Reinvasion Assay: Mean PV ratios (19.5h:6h), Replicate 3a of the following compound is 0.6 or greater: c1ccc(CNc2nc(Nc3ccccc3)nc3ccccc23)cc1 class 1

Identify whether the reported Egress and Reinvasion Assay: Mean PV ratios (19.5h:6h), Replicate 3a of the following compound is 0.6 or greater: O=C(Nc1ccc(Cl)c(Cl)c1)N1CCN(c2ccc3nncn3n2)CC1 class 1
